Data origin, for the record: patent EP4585599A1

Target: helicase domain of the Pol θ protein (Homo sapiens, UniProt O75417)
Construct: The helicase domain of the Pol θ protein was purified from insect protein expression system; made in house; host or cells: insect protein expression system
Sequence (O75417 102-554 limits assumed): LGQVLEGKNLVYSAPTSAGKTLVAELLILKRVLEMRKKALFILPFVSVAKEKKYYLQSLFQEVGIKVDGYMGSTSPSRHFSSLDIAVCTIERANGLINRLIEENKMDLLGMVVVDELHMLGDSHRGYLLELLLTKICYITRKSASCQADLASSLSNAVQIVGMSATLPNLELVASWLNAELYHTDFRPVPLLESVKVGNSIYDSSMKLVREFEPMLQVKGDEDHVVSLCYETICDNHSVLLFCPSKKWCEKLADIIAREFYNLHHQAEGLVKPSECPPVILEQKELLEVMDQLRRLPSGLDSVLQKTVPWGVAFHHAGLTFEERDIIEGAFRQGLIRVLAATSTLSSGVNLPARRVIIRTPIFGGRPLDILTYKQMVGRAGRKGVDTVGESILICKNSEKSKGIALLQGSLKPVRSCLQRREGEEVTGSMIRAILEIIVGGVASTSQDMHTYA
Assay: Biochemical Activity Assay (ADP Glo Assay) of Pol θ inhibitor, ATPase activity
Conditions: ADP-Glo assay, ATPase activity of Pol θ helicase domain, ssDNA substrate; read-out: Biochemical assay IC50
pIC50: −log10 of the molar value.
Classify by measured pIC50: MET if it is equal to or exceeds 8, NOT MET if it is smaller.

Examples with answers:
# Compound, Label
data = [
    ("COc1cnc(Cl)c(F)c1-c1cc(C)ncc1C(=O)Nc1nc2ncc(N3CCC(O)CC3)cc2s1", "MET"),
    ("COc1cnc(Cl)cc1-c1cc(C)ncc1C(=O)Nc1nc2cc(C3=CCC(O)CC3)cnc2s1 (stereo not drawn)", "NOT MET"),
    ("COc1cnc(Cl)cc1-c1cc(C)ncc1C(=O)Nc1nc2ccc(N3CCC(O)CC3)c(F)c2s1", "MET"),
    ("COc1cnc(Cl)cc1-c1cc(C)ncc1C(=O)Nc1nc2ncc(-c3cnc4[nH]ccc4c3)cc2s1", "NOT MET"),
    ("COc1cnc(Cl)cc1-c1cc(C)ncc1C(=O)Nc1nc2cnc(-c3c(C)nn(C)c3C(N)=O)cc2s1", "MET"),
    ("COc1cnc(Cl)cc1-c1cc(C)ncc1C(=O)Nc1nc2cc(C3CCC(O)CC3)cnc2s1 (stereo not drawn)", "NOT MET"),
]

Has COc1cnc(Cl)cc1-c1cc(C)ncc1C(=O)Nc1nc2ncc(C3CCOCC3)cc2s1 a recorded pIC50 greater than or equal to 8? MET

Has COc1cnc(Cl)cc1-c1cc(C)ncc1C(=O)Nc1nc2ccc(C3=CCC(O)CC3)nc2[nH]1 (stereo not drawn) a recorded pIC50 greater than or equal to 8? NOT MET

Has COc1cnc(Cl)cc1-c1cc(C)ncc1C(=O)Nc1nc2ncc(N3CCC(O)C(C)(C)C3)cc2s1 (stereo not drawn) a recorded pIC50 greater than or equal to 8? MET

Has COc1cnc(Cl)cc1-c1c(C(=O)Nc2nc3ccc(N4CCC(O)CC4)nc3s2)cnc(C)c1F a recorded pIC50 greater than or equal to 8? NOT MET

Has COc1cnc(Cl)cc1-c1cc(C)ncc1C(=O)Nc1nc2ncc(-c3ccc(=O)[nH]c3)cc2s1 a recorded pIC50 greater than or equal to 8? MET

Has COc1cnc(Cl)cc1-c1cc(C)ncc1C(=O)Nc1nc2ncc(C3(O)CCC4(CC3)COC4)cc2s1 a recorded pIC50 greater than or equal to 8? MET

Has COc1cnc(Cl)cc1-c1cc(C)ncc1C(=O)Nc1nc2cnc(C3=CCC(O)CC3)nc2s1 (stereo not drawn) a recorded pIC50 greater than or equal to 8? MET

Has COc1cnc(Cl)cc1-c1cc(C)ncc1C(=O)Nc1nc2ncc(NC3CCN(S(C)(=O)=O)CC3)cc2s1 a recorded pIC50 greater than or equal to 8? MET

Has COc1cnc(Cl)c(F)c1-c1cc(C)ncc1C(=O)Nc1nc2ccc(C3CCC(O)CC3)cc2s1 (stereo not drawn) a recorded pIC50 greater than or equal to 8? MET

Has COc1cnc(Cl)cc1-c1cc(C)ncc1C(=O)Nc1nc2ncc(-c3ccc(N4CCNCC4)cc3)cc2s1 a recorded pIC50 greater than or equal to 8? MET

Has COc1cnc(Cl)c(F)c1-c1cc(C)ncc1C(=O)Nc1nc2cnc(-c3c(C)cnn3C)cc2s1 a recorded pIC50 greater than or equal to 8? MET

Has COc1cnc(Cl)cc1-c1cc(C)ncc1C(=O)Nc1nc2cnc(C3=CC[C@@H](O)CC3)cc2s1 a recorded pIC50 greater than or equal to 8? MET

Has COc1cnc(Cl)cc1-c1cc(C)ncc1C(=O)Nc1nc2cnc(C3=CCC(O)CC3)cc2s1 (stereo not drawn) a recorded pIC50 greater than or equal to 8? MET

Has COc1cnc(Cl)cc1-c1cc(C)ncc1C(=O)Nc1nc2ncc(N3CCN(S(C)(=O)=O)CC3)cc2s1 a recorded pIC50 greater than or equal to 8? MET

Has COc1cnc(Cl)cc1-c1cc(C)ncc1C(=O)Nc1nc2ncc(NS(C)(=O)=O)cc2s1 a recorded pIC50 greater than or equal to 8? MET

Has COc1cnc(Cl)cc1-c1cc(C)ncc1C(=O)Nc1nc2ncc(N3CCCC(O)C3)cc2s1 (stereo not drawn) a recorded pIC50 greater than or equal to 8? MET

Has [2H]C([2H])([2H])Oc1cnc(Cl)cc1-c1cc(C)ncc1C(=O)Nc1nc2cnc(-c3c(C)nnn3C)c(F)c2s1 a recorded pIC50 greater than or equal to 8? MET

Has COc1cnc(Cl)cc1-c1cc(C)ncc1C(=O)Nc1nc2cnc(-c3nn(CCO)cc3C)cc2s1 a recorded pIC50 greater than or equal to 8? MET

====

Test: cells
Settings: Homo sapiens, DLD-1, 240 h, read-out: Cell viability assay IC50 (nM), CTG assay, CellTiter Glo, read on Day 10; cell line not given
In this section, each of the molecules is paired with its reported IC50.
Kindly format the answer as number then unit.

# Molecule, Quantity Measured, Observed Measurement
records = [
    ("COc1cccc(F)c1-c1cc(C)ncc1C(=O)Nc1nc2ccc([C@H]3CC[C@H](O)CC3)nc2s1", "IC50", "7080 nM"),
    ("COc1cnc(Cl)cc1-c1cc(C)ncc1C(=O)Nc1nc2ccc(N3CCC(O)CC3)c(F)c2s1", "IC50", "5.62 nM"),
    ("Cc1cc(-c2cc(Cl)ncc2OC(F)F)c(C(=O)Nc2nc3ccc(N4CCC(O)CC4)nc3s2)cn1", "IC50", "11 nM"),
    ("COc1cnc(Cl)cc1-c1cc(C)ncc1C(=O)Nc1nc2cnc(-c3nn(CCO)cc3C)cc2s1", "IC50", "1850 nM"),
]

Would you kindly share the measured IC50 for COc1cnc(Cl)cc1-c1cc(C)ncc1C(=O)Nc1nc2ncc(N3CCC(CO)C3)cc2s1 (stereo not drawn) ? 501 nM

Would you kindly share the measured IC50 for COc1cnc(Cl)cc1-c1cc(C)ncc1C(=O)Nc1nc2ccc(-c3ccncc3C)nc2s1 ? 29.3 nM

====

Test: cells
Conditions: Homo sapiens, DLD-1, 240 h, read-out: Cell viability assay IC50 (nM), CTG assay, CellTiter Glo, read on Day 10; cell line not given
Quantity Measured: IC50 (nM)
// note: answer is a bare numeric in nM

Past entries and their recorded results:
# Compound, Readout Units, IC50
measured = [
    ("COc1cnc(Cl)cc1-c1cc(C)ncc1C(=O)Nc1nc2cnc(-c3nnnn3C)cc2s1", "nM", 141),
    ("COc1cnc(Cl)cc1-c1cc(C)ncc1C(=O)Nc1nc2ncc(C3=CC(O)CC3)cc2s1 (stereo not shown)", "nM", 92.6),
    ("COc1cnc(Cl)cc1-c1cc(C)ncc1C(=O)Nc1nc2ncc(N3CCC(NS(C)(=O)=O)CC3)cc2s1", "nM", 1120),
]

Would you kindly share the measured IC50 for COc1cnc(Cl)cc1-c1cc(C)ncc1C(=O)Nc1nc2ccc(N3CCn4cncc4C3)nc2s1 ? 171

====

Assay: cells
Settings: Homo sapiens, DLD-1, 240 h, read-out: Cell viability assay IC50 (nM), CTG on Day 10; cell line not given (method: DLD1 and DLD1^-/- cells)
Quantity Measured: IC50

Past entries and their recorded results:
# Molecule, IC50
data = [
    ("COc1cccc(F)c1-c1cc(C)ncc1C(=O)Nc1nc2ccc(C3=CCC(O)CC3)nc2s1 (stereo not shown)", "100 to 500 nM"),
    ("COc1cnc(Cl)cc1-c1cc(C)ncc1C(=O)Nc1nc2ncc(N3CCC(N)CC3)cc2s1", "> 1000 nM"),
    ("COc1cnc(Cl)cc1-c1cc(C)ncc1C(=O)Nc1nc2ncc(N3CC4CC3CC4O)cc2s1 (stereo not shown)", "100 to 500 nM"),
]

Would you kindly share the measured IC50 for COc1cnc(Cl)cc1-c1cc(C)ncc1C(=O)Nc1nc2c(F)cc(C3=CCC(O)CC3)cc2s1 (stereo not shown) ? < 100 nM

====

In this section, each of the molecules is paired with its reported pIC50.
Target: helicase domain of the Pol θ protein (Homo sapiens, UniProt O75417)
Construct: The helicase domain of the Pol θ protein was purified from insect protein expression system; made in house; host or cells: insect protein expression system
Test: Biochemical Activity Assay (ADP Glo Assay) of Pol θ inhibitor, ATPase activity
Details: ADP-Glo assay, ATPase activity of Pol θ helicase domain, ssDNA substrate; read-out: Biochemical assay IC50
Worth noting: pIC50 values are minus log10 of concentrations stated in mol/L.

Past entries and their recorded results:
# Molecule, Quantity Measured, Observed Measurement
records = [
    ("COc1cnc(Cl)cc1-c1cc(C)ncc1C(=O)Nc1nc2cnc(-c3c(C)cnn3CCO)cc2s1", "pIC50", 8.60),
    ("COc1cnc(Cl)cc1-c1cc(C)ncc1C(=O)Nc1nc2cnc(N3CC[C@@H](O)C[C@@H]3C)nc2s1", "pIC50", 7.80),
    ("[2H]C([2H])([2H])c1cc(-c2cc(Cl)ncc2OC)c(C(=O)Nc2nc3cnc(C4=CCC(O)CC4)cc3s2)cn1 (stereo not drawn)", "pIC50", 8.58),
    ("COc1cnc(Cl)cc1-c1cc(C)ncc1C(=O)Nc1nc2c(F)cc(C3=CCC(O)CC3)cc2s1 (stereo not drawn)", "pIC50", 8.54),
]

Would you kindly share the measured pIC50 for CNC1CCN(c2cnc3nc(NC(=O)c4cnc(C)cc4-c4cc(Cl)ncc4OC)sc3c2)CC1 ? 8.78

Would you kindly share the measured pIC50 for COc1cnc(Cl)cc1-c1cnccc1C(=O)Nc1nc2ccc(C3=CCC(O)CC3)nc2s1 (stereo not drawn) ? 7.72
